- target or test system: T1, human C1s (human, UniProt P09871 16-688)
- T1 construct: also called hC1s; serum-derived human C1s (CompTech)
- T1 sequence: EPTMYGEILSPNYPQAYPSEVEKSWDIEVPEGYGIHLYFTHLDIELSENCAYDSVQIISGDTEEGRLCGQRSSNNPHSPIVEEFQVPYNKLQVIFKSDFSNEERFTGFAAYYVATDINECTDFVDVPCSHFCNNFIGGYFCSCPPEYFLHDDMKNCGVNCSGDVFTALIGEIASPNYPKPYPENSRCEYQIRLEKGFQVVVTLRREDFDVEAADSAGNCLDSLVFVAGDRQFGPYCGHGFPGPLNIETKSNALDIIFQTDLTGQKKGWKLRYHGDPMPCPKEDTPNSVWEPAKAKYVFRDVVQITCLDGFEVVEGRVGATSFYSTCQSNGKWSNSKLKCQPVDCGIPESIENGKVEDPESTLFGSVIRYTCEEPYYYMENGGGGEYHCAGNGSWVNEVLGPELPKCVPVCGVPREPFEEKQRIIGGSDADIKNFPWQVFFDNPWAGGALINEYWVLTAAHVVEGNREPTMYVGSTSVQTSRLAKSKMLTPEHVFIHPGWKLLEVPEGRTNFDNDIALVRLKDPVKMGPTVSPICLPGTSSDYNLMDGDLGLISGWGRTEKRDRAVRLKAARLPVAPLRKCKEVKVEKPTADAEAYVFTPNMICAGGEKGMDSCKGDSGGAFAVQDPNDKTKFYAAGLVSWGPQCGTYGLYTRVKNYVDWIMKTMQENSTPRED
- test name: SPR; KD pH 5.8 3 uM Ca / KD pH 7.4 1.2 mM Ca
The entries below are paired with their reported KD 5(-)/7(+).
Respond using a number only.

C1_IPN92H0026-SG4GK/IPN93L0031-SK1 (antibody, human IgG4 S228P, kappa, name in Kabat numbering, V domains shown, also called IPN92H0026/IPN93L0031) VH: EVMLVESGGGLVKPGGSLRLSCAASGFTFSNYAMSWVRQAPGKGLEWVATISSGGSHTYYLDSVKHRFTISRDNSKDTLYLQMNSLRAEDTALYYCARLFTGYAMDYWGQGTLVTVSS VL: QIVLTQSPATLSLSPGERATLSCTASSSVSSSYLHWYQQKPGKAPKLWIYSTSNLASGVPSRFSGSGSGTDYTLTISSLQPEDFATYYCHQYHRHHPITFGQGTKLEIKR :: 0.3

Now look at this entry.
(Q) Report KD 5(-)/7(+), nothing else, for this binder: C1_IPN92H0026-SG4GK/IPN93L0030-SK1 (antibody, human IgG4 S228P, kappa, name in Kabat numbering, V domains shown, also called IPN92H0026/IPN93L0030) VH: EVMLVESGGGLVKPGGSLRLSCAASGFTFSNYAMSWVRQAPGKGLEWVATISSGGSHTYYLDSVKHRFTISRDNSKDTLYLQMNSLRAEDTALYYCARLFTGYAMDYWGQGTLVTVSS VL: QIVLTQSPATLSLSPGERATLSCTASSSVSSSYLHWYQQKPGKAPKLWIYSTSNLASGVPSRFSGSGSGTDYTLTISSLQPEDFATYYCHQYYRHHPITFGQGTKLEIKR
(A) 10.9
